Source of measurements: ChEMBL document CHEMBL1126115

Starred links: 1 amine or outer side, 2 acyl side, 3 side chain; linkers in the order of their positions; H or OH if unused. Non-standard residues stand in square brackets, D forms with d. Residues, ends and D or L forms follow the SMILES beside them. X1 = NC(N)=NCCCC(N[*:1])C(=O)CCCCC(=O)[*:2]; X2 = O=C(C/C=C/CN[*:1])[*:2]
MEASURE NAME: pKi
As a rule, pKi stands for the negative log10 of the concentration, concentration in M.

Value (pKi, Prothrombin (Homo sapiens, UniProt P00734)) for record CC[C@H](C)[C@H](NC(=O)[C@@H]1CCCN1C(=O)[C@H](CCC(=O)O)NC(=O)[C@H](Cc1ccccc1)NC(=O)[C@H](CC(=O)O)NC(=O)C/C=C/CNC(=O)C/C=C/CNC(=O)CCCCC(=O)C(CCCN=C(N)N)NC(=O)[C@@H]1CCCN1C(=O)[C@H](Cc1ccccc1)NC(C)=O)C(=O)N1CCC[C@H]1C(=O)N[C@@H](CC(C)C)C(=O)O (some centres undefined) = 8.46

The recorded pKi with Prothrombin (Homo sapiens, UniProt P00734) for CC[C@H](C)[C@H](NC(=O)[C@@H]1CCCN1C(=O)[C@H](CCC(=O)O)NC(=O)[C@H](Cc1ccccc1)NC(=O)[C@H](CC(=O)O)NC(=O)C/C=C/CNC(=O)CCCCC(=O)[C@H](CCCN=C(N)N)NC(=O)[C@@H]1CCCN1C(=O)[C@H](Cc1ccccc1)NC(C)=O)C(=O)N1CCC[C@H]1C(=O)N[C@@H](CC(C)C)C(=O)O (HELM PEPTIDE1{[ac].F.P.[NC(N)=NCCC[C@H](N[*:1])C(=O)CCCCC(=O)[*:2]].[O=C(C/C=C/CN[*:1])[*:2]].D.F.E.P.I.P.L}$$$$V2.0) was 6.52

The measured pKi that CC[C@H](C)[C@H](NC(=O)[C@@H]1CCCN1C(=O)[C@H](CCC(=O)O)NC(=O)[C@H](Cc1ccccc1)NC(=O)[C@H](CC(=O)O)NC(=O)C/C=C/CNC(=O)C/C=C/CNC(=O)C/C=C/CNC(=O)CCCCC(=O)C(CCCN=C(N)N)NC(=O)[C@@H]1CCCN1C(=O)[C@H](Cc1ccccc1)NC(C)=O)C(=O)N1CCC[C@H]1C(=O)N[C@@H](CC(C)C)C(=O)O (some centres undefined) (Ac-FP[X1][X2][X2][X2]DFEPIPL-OH) showed for Prothrombin (Homo sapiens, UniProt P00734) is 8.49

Entry CC[C@H](C)[C@H](NC(=O)[C@@H]1CCCN1C(=O)[C@H](CCC(=O)O)NC(=O)C(Cc1ccccc1)NC(=O)[C@H](CC(=O)O)NC(=O)CNC(=O)[C@H](CC(=O)O)NC(=O)[C@H](CC(N)=O)NC(=O)[C@H](Cc1cnc[nH]1)NC(=O)[C@H](CO)NC(=O)[C@H](CCC(N)=O)NC(=O)[C@@H]1CCCN1C(=O)[C@H](CCCNC(=N)N)N(C)C(=O)[C@@H]1CCCN1C(=O)C(Cc1ccccc1)NC(C)=O)C(=O)N1CCC[C@H]1C(=O)N[C@@H](CC(C)C)C(=O)O (stereo in doubt) ; assay system Prothrombin (Homo sapiens, UniProt P00734); pKi recorded at 8.55
